List of abundance fitness values.
B1: Formin-binding protein 4, residues 593 to 636; numbered along this chain, Q8N3X1 (parent)
chain: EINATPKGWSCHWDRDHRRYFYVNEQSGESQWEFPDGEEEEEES

# Variants of: B1
# ASSAY_REMARKS: abundance fitness (aPCA) (normalised: wild type 0, dead -1); higher = more abundant; growth selection in yeast, the domain comes from the species named
# CONDITION_NOTES: Homo sapiens
// print number alone

Example variants with recorded abundance fitness:
* R15I | 0.373
* H12T | -0.407
* R18A | 0.012
* Y20V | -0.206
* W9R | -0.817

Turning now to a further variant:
Recorded abundance fitness for Q26K , please?
0.18
